Tested on: 323965-272-R-J2-PDC complex spheroid growth, % test/control;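 note: compound exposure lasted 7 days starting three days after spheroid seeding; 100% = DMSO vehicle control wells with viability set relative to vehicle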
Assay details: Anticancer human tumor 323965-272-R-J2-PDC patient-derived pancreatic carcinoma cell line growth inhibition [Asc]
Particulars: second compound 0.3 µM; first compound 0.00316 µM; active compounds read low
I'd be grateful if you could share measured viability, T/C for these entries.

{"Compound": "NC1CCC(NC2CC2c2ccccc2)CC1 (configuration not stated) + CCN1C(C(=O)NC23CCC(C(=O)O)(CC2)CC3)C(c2cccc(Cl)c2F)C2(C(=O)Nc3cc(Cl)ccc32)C12CCCCC2", "viability, T/C": "101%"}

# ---- query compound ----
Suppose we examine the compound CNC(C)C(=O)NC1CN(S(=O)(=O)c2cccc(S(=O)(=O)N3CCC4CCC(C(=O)NC(c5ccccc5)c5ccccc5)N4C(=O)C(NC(=O)C(C)NC)C3)c2)CCC2CCC(C(=O)NC(c3ccccc3)c3ccccc3)N2C1=O (configuration not stated) + CCN1C(C(=O)NC23CCC(C(=O)O)(CC2)CC3)C(c2cccc(Cl)c2F)C2(C(=O)Nc3cc(Cl)ccc32)C12CCCCC2 ; what viability, T/C value has been reported?
123%

Hey, just so you know, these numbers are from PubChem BioAssay AID1963425.
